- PROTOCOL TEXT: Pharmacokinetic study in rats after single ocular instillation;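 note: drug levels in plasma and homogenized choroid/sclera and retina quantified by LC/MS/MS, parameters derived from mean concentrations, t1/2 from terminal log-linear slope, AUC via linear trapezoids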
- CONDITION LABEL: rat, retina of the dosed eye, topical or ocular, 4.9 mg/mL (10 μL/eye)
READOUT TYPE: half-life (h)
Just the number please, in h, no unit attached.

Provide only the value of recorded half-life for `Cc1ccc(Nc2nccc(N(C)c3ccc4c(C)n(C)nc4c3)n2)cc1S(N)(=O)=O.Cl`
159

---

- PROTOCOL TEXT: in vivo
- CONDITION LABEL: rat, in vivo, topical or ocular, AUC0‐t, plasma, single ocular instillation, regorafenib 21.2 mg/mL or pazopanib 4.9 mg/mL, 10 μL/eye
READOUT TYPE: AUC

Provide only the value of recorded AUC for CNC(=O)c1cc(Oc2ccc(NC(=O)Nc3ccc(Cl)c(C(F)(F)F)c3)c(F)c2)ccn1.O [Regorafenib]
1010 ng·h/mL
